# measurement.notes: Density gradient analysis of fresh, quickly crystallized sulfathiazole samples
# Format: physicochemical
# condition.description: relative amount of form in density gradient; benzene/chloroform to tetrachloroethylene gradient
measured.parameter: Form III

{"compound": "Nc1ccc(S(=O)(=O)Nc2nccs2)cc1 [Tube C, sulfathiazole]", "meas.value": "major"}
{"compound": "Nc1ccc(S(=O)(=O)Nc2nccs2)cc1 [Tube A, sulfathiazole]", "meas.value": "major"}
{"compound": "Nc1ccc(S(=O)(=O)Nc2nccs2)cc1 [Tube B, sulfathiazole]", "meas.value": "major"}
{"compound": "Nc1ccc(S(=O)(=O)Nc2nccs2)cc1 [Tube D, sulfathiazole]", "meas.value": "minor"}

---

# measurement.notes: Density gradient analysis of fresh, quickly crystallized sulfathiazole samples
# Assay type: physicochemical
# condition.description: relative amount of form in density gradient; benzene/chloroform to tetrachloroethylene gradient

{"compound": "Nc1ccc(S(=O)(=O)Nc2nccs2)cc1 [Tube B, sulfathiazole]", "Form IV": "minor"}
{"compound": "Nc1ccc(S(=O)(=O)Nc2nccs2)cc1 [Tube C, sulfathiazole]", "Form IV": "minor"}
{"compound": "Nc1ccc(S(=O)(=O)Nc2nccs2)cc1 [Tube A, sulfathiazole]", "Form IV": "major"}
{"compound": "Nc1ccc(S(=O)(=O)Nc2nccs2)cc1 [Tube D, sulfathiazole]", "Form IV": "very"}

---

# measurement.notes: Density gradient analysis of fresh, quickly crystallized sulfathiazole samples
# Format: physicochemical
# condition.description: relative amount of form in density gradient; benzene/chloroform to tetrachloroethylene gradient

{"molecule": "Nc1ccc(S(=O)(=O)Nc2nccs2)cc1 [Tube D, sulfathiazole]", "Form II": "major"}
{"molecule": "Nc1ccc(S(=O)(=O)Nc2nccs2)cc1 [Tube A, sulfathiazole]", "Form II": "minor"}
{"molecule": "Nc1ccc(S(=O)(=O)Nc2nccs2)cc1 [Tube C, sulfathiazole]", "Form II": "major"}
{"molecule": "Nc1ccc(S(=O)(=O)Nc2nccs2)cc1 [Tube B, sulfathiazole]", "Form II": "major"}

Hello, the source for this data is patent US9089850B2, in case you need it.
